- method_notes: Protein binding test (equilibrium dialysis, unbound ratio fu in serum)
- Format: in vitro ADME
- condition_label: rat serum, equilibrium dialysis 24 hours, 37° C., 2 μg/mL
rat_fu values by entry
measurement_kind: rat_fu

compound	measurement_kind	value_observed
COc1ccc(S(=O)(=O)N(CC(C)C)CC(O)C(Cc2ccc(NCc3cc(C(F)(F)F)ccc3-n3nc4c(c3C(=O)O)CC(C)(C)CC4)cc2)NC(=O)OC2COC3(C)OCCC23)cc1 (stereo not drawn)	rat_fu	<0.1%
COc1ccc(S(=O)(=O)N(CC(C)C)CC(O)C(Cc2ccc(N(C)Cc3ccccc3-n3nc4c(c3C(=O)O)CC(C)(C)CC4)cc2)NC(=O)OC2COC3(C)OCCC23)cc1 (stereo not drawn)	rat_fu	<0.1%
COc1ccc(S(=O)(=O)N(CC(C)C)CC(O)C(Cc2ccc(NCc3ccccc3-c3sc4c(c3C(=O)O)CC(C)(C)CC4(C)C)cc2)NC(=O)OC2COC3(C)OCCC23)cc1 (stereo not drawn)	rat_fu	<0.1%
